Recorded measurements of % Inhibition, one per entry
target_under_test: T1, human Fc tagged human Lag3 extra cellular domain (human, UniProt P18627 29-450, biotinylated in the epitope binning, the SA CAP SPR and the FACS competition assay)
T1 construct: In-house fusion; also called huLag3-Fc; biotinylated, huFc-tagged huLag3; not shown: human Fc tag
T1 sequence: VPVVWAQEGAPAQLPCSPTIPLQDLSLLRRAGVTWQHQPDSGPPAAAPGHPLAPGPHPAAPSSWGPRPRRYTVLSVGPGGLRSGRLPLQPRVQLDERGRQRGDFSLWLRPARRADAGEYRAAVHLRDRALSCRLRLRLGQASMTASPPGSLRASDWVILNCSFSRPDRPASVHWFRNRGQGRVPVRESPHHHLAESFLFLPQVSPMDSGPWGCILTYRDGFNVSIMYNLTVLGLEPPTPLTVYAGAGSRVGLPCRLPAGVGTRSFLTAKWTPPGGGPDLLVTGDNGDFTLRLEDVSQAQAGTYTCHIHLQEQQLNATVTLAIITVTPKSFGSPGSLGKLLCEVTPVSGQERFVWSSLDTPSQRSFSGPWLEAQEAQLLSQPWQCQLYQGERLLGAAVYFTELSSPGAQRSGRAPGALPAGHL
experimental_protocol: FACS, inhibition of biotinylated Lag3:Fc binding to MHC-II on A375 cells (competitor MHC-II); antibody 10 µg/ml
# number only, unit % dropped from output

binder="aLAG3(0416) (antibody, V domains shown) VH: EVQLVESGGGLVQPGGSLRLACAASGFTFSDYAMSWVRQAPGKGLEWVSGIDNSGYYTYYTDSVKGRFTISRDDVKNTLYLQMNSLRAEDTAVYLCTKTHSGLIVNDAFDIWGQGTMVTVSS VL: DIQLTQSPSSLSASVGDRVTITCRASQSISSYLNWYQQKPGKAPKLLIYDASSLESGVPSRFSGSGSGTDATLTISSLQPEDFATYYCQQSYSTPLTFGGGTKVEIKG" readout_units=% readout_value=68.6
binder="aLAG3(0414) (antibody, V domains shown) VH: EVQLLESGGGLVQPGGSLRLSCAASGFIFDDYTMNWVRQAPGKGLEWVAVISWDGGGTYYTDSVKGRFTISRDDFKNTLYLQMNSLRAEDTAVYYCAKGLTDTTLYGSDYWGQGTLVTVSS VL: DIQMTQSPSSLSASVGDRVTITCRASQSISSYLNWYQQKPGKAPKLLIYAASTLQSGVPSRFSGSGSGTDFTLTISSLQPEDFATYYCQQTYSSPLTFGGGTKVEIKG" readout_units=% readout_value=67.3
binder="Reference LAG3 antibody MDX25F7 (antibody, V domains shown, also called MDX-25F7 (25F7); Medarex 25F7) VH: QVQLQQWGAGLLKPSETLSLTCAVYGGSFSDYYWNWIRQPPGKGLEWIGEINHNGNTNSNPSLKSRVTLSLDTSKNQFSLKLRSVTAADTAVYYCAFGYSDYEYNWFDPWGQGTLVTVSS VL: EIVLTQSPATLSLSPGERATLSCRASQSISSYLAWYQQKPGQAPRLLIYDASNRATGIPARFSGSGSGTDFTLTISSLEPEDFAVYYCQQRSNWPLTFGQGTNLEIK" readout_units=% readout_value=70

Please turn your attention to the following entry.
Lookup: Tell me measured % Inhibition for aLAG3(0411) (antibody, V domains shown, also called aLAG3 (411)) VH: EVHLLESGGGLVQPGGSLRLSCAASGFIVDDYTMNWVRQAPGKGLEWVSVISWDGGATYYADSVKGRFTISRDDFKNTLYLQMNSLRAEDTAVYYCAKGLTDDTLYGSDYWGQGTLVTVSS VL: DIQMTQSPSSLSASVGDRVTITCRASQSIVSYLNWYQQKPGKAPKLLIYASSSLQSGVPSRFSGSGSGTDFTLTISSLQPEDFATYYCQQTYSTPLTFGGGTKVEIK please.
Found: 45.6
